B1: mRNA-splicing (parent)
chain: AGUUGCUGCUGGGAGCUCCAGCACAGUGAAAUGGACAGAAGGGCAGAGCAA

Variants of: B1
Test: exon inclusion enrichment index; higher = more inclusion; WT1 exon 5 minigene, HEK293

[
  {
    "mutant name": "G5A C6U U7A G8U C9A G13A A14G",
    "exon inclusion enrichment index": 0.0895
  },
  {
    "mutant name": "G5A U7C G8A U10C A47U",
    "exon inclusion enrichment index": 2
  },
  {
    "mutant name": "G5A U7C G8A U10C A40U",
    "exon inclusion enrichment index": 1.97
  },
  {
    "mutant name": "G5A U7C G8A U10C A29U A30C",
    "exon inclusion enrichment index": 1.98
  }
]
